For each entry below, report its growth inhibition value.
assay: NCI Yeast Anticancer Drug Screen. Data for the sgs1 mgt1 strain (AID 161);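 further: 0% = growth of cultures given vehicle only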; conditions: S. cerevisiae sgs1 mgt1 strain, at 50.0 µM, active compounds read high
The panel holds about 79,000 compounds, 15% with a hit somewhere; the sample as a whole holds those more often. Activity calls are given as the source filed them. No stated cut-off is given here; in the data, active means growth inhibition above about 70%; inactive means the rest.

Exercise: Give reported growth inhibition value for `O=C1CCSSCCC(=O)Nc2ccccc2N1`
Key: -14.8% (inactive)

Exercise: Give reported growth inhibition value for CCN(CC)CC1CCCCN1CC(=O)N1c2ccccc2NC(=O)c2ccccc21 (configuration not stated)
Key: 5.25% (inactive)

Exercise: Give reported growth inhibition value for `S=C(S)NCNC(=S)S.[Zn+2]`
Key: 26.1% (inactive)

Exercise: Give reported growth inhibition value for `Nc1nc(-c2ccco2)cc(-c2ccc(CO)o2)n1`
Key: -10.2% (inactive)

Exercise: Give reported growth inhibition value for CC(C)OP(=O)(OC(C)C)C1C(P(=O)(OC(C)C)OC(C)C)C(F)(F)C1(F)F (configuration not stated)
Key: -7.35% (inactive)

Dear reader, for each entry below, please note its growth inhibition.
1. CSCCC(NC(=O)c1c(Cl)ccc(Cl)c1Cl)C(=O)O (configuration not stated)
2. O=C(CCBr)OCc1ccccc1
3. Clc1ccc(CCc2ccncn2)c(Cl)c1

Key:
1. 18.6% (inactive)
2. 1.1% (inactive)
3. 5.7% (inactive)

Dear reader, for each entry below, please note its growth inhibition.
1. CCOC(=O)CCC(NC(=O)c1ccc(Nc2nc3cc(C(F)(F)F)ccc3nc2-c2ccccc2)cc1)C(=O)OCC (configuration not stated)
2. Cc1[nH]c(=O)cc(C(=O)O)c1CN
3. CC(=O)OCC1OC(n2c(S)c(C#N)c(-c3ccccc3)c(C#N)c2=O)C(OC(C)=O)C(OC(C)=O)C1OC(C)=O (configuration not stated)
4. N=C(c1ccc2ccccc2c1)c1ccccc1Cc1ccccc1

Key:
1. 12.1% (inactive)
2. 3.7% (inactive)
3. -17.3% (inactive)
4. 6.15% (inactive)

Dear reader, for each entry below, please note its growth inhibition.
1. COc1ccc2c(Cc3ccccc3O)cncc2c1O
2. CCN(CC)CCNc1c2ccc(Cl)cc2nc2c1c(C)nn2C
3. Cn1nnc2c(C(N)=O)ncn2c1=O
4. C[N+](C)(C)C12CCCCCC1SC2 (configuration not stated)
5. COC(=O)/C(=N\NC(C)(C)C)C(C(=O)C(=O)Nc1cc(C)ccc1C)c1nc2ccccc2[nH]c1=O (configuration not stated)
6. CC(=O)Oc1c(C)cc2c(c1C)C(C)CN2C(C)=O (configuration not stated)
7. O=[N+]([O-])c1ccc(N/N=C2\CCC3CC23)c([N+](=O)[O-])c1 (configuration not stated)
8. CC(Sc1ccccn1)C(=O)c1ccccc1 (configuration not stated)

Key:
1. -4.75% (inactive)
2. 18.9% (inactive)
3. -28.5% (inactive)
4. 9.55% (inactive)
5. -1.5% (inactive)
6. -24.6% (inactive)
7. -2.15% (inactive)
8. -4.05% (inactive)

Dear reader, for each entry below, please note its growth inhibition.
1. Cc1nc2sc(CCl)nn2c(=O)c1Cl
2. CSc1nc(NC2OC(COC(C)=O)C(OC(C)=O)C(OC(C)=O)C2OC(C)=O)c(N=C(C)C(C)=O)c(=O)n1C (configuration not stated)
3. CC(O)C(O)C(O)C1OC1=O (configuration not stated)

Key:
14.6% (inactive)
-14.2% (inactive)
0.75% (inactive)

Dear reader, for each entry below, please note its growth inhibition.
1. CCc1cc2c(cc1/C(C)=N/N=C(\C)c1cc3c(cc1CC)C(C)(C)CCC3(C)C)C(C)(C)CCC2(C)C
2. O=C(OCCCCCCCCOC(=O)c1ccc([N+](=O)[O-])cc1)c1ccc([N+](=O)[O-])cc1
3. Cc1ccc(/C=C/c2cc(/C=C/c3ccc(C)cc3)c([N+](=O)[O-])cc2[N+](=O)[O-])cc1
4. O=C1CCCC2=C1CC1=C(CCCC1=O)N2c1ccccc1C(=O)O

Key:
["-9.3% (inactive)", "12.2% (inactive)", "-2.3% (inactive)", "-23.8% (inactive)"]

###

Assay: NCI Yeast Anticancer Drug Screen. Data for the cln2 rad14 strain (AID 165);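 further: 0% = growth equal to vehicle treated cultures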
Settings: S. cerevisiae cln2 rad14 strain, at 50.0 µM
Method: Growth inhibition of yeast strains with defined genetic alterations is measured as a screen for potential anti-cancer activity. Selected strains with alterations in DNA damage repair or cell cycle control were exposed to compounds and growth inhibition was measured relative to vehicle treated controls. The strain used in this assay is cln2 rad14
Compounds without any hit were thinned out: in the full panel of roughly 79,000, 15% have a hit. Calls of active or inactive are those of the source. No stated cut-off is given here; in the data, active means growth inhibition above about 70%; inactive means the rest.
Entry note: the call must match one of active, inactive

Known results for molecules:
Exercise: Please let me know the test result on file for `Cc1nc(Cl)c2cnccn12` .
Key: inactive

Exercise: Please let me know the test result on file for ONC1=Nc2ccccc2C(=S)N2CSCC12 (configuration not stated) .
Key: inactive

Exercise: Please let me know the test result on file for COc1cc(C)cc(C(=O)C2=NNCC2c2ccccc2)c1O (configuration not stated) .
Key: inactive

Exercise: Please let me know the test result on file for CC1(C)/C(=C\C(=O)O)C2CCC1C2 (configuration not stated) .
Key: inactive

Exercise: Please let me know the test result on file for `Cc1ccc(S(=O)(=O)CN2CCC(=O)c3ccccc32)cc1` .
Key: inactive

Others:
Exercise: Please let me know the test result on file for `C=CCn1c(=S)sc2c(C(=O)OCC)c3c(C)cc(C)cn3c2c1=O` .
Key: inactive

Exercise: Please let me know the test result on file for COC1OC2COC(c3ccccc3)OC2C(OC(C)=O)C1OS(=O)(=O)c1ccc(C)cc1 (configuration not stated) .
Key: inactive

Exercise: Please let me know the test result on file for `N#CC(CCc1ccccc1)(c1ccccc1)c1ccccc1` .
Key: inactive

Exercise: Please let me know the test result on file for `C/C(N)=C\c1nc(=O)ccs1` .
Key: inactive

###

test: NCI Yeast Anticancer Drug Screen. Data for the mlh1 rad18 strain (AID 175); conditions: S. cerevisiae mlh1 rad18 strain growth inhibition; at 50.0 µM; active compounds read high
The panel holds about 79,000 compounds, 15% with a hit somewhere; the sample as a whole holds those more often.
readout: growth inhibition (%)
Answers are plain numbers, in %.

Exercise: Give reported growth inhibition value for CC1CCC(NC(=O)NCCCl)c2ccccc21 (stereo unspecified)
Key: -6.65

Exercise: Give reported growth inhibition value for `CCOC(=O)CC1(C)OCCO1`
Key: 28

Exercise: Give reported growth inhibition value for `O=c1[nH]c2cc(Cl)ccc2nc1/C=C(\O)c1ccc2ccccc2c1`
Key: 25.4

Exercise: Give reported growth inhibition value for `CC(=O)Oc1ccccc1/C=C1/C=C(c2ccccc2)OC1=O`
Key: 0.2

Exercise: Give reported growth inhibition value for N#Cc1c(N)ncn1C1OC(CO)C(O)C1O (stereo unspecified)
Key: -13.3

Exercise: Give reported growth inhibition value for `Fc1ccc(C(c2ccc(F)cc2)C(F)(F)F)cc1`
Key: 13.4

Dear reader, for each entry below, please note its growth inhibition.
1. C=C1C(=O)OC2/C=C(\C)C(OC(C)=O)C3OC3C(C)(O)CC(OC(=O)/C(C)=C/C)C12 (stereo unspecified)
2. CCCN(CCC)S(=O)(=O)c1ccc(NC(=O)OC(CC)c2ccco2)cc1 (stereo unspecified)
3. O=C1OCC(O)C(O)C(O)C(O)C1O (stereo unspecified)

Key:
[-13.1, 8.8, 39.7]

Dear reader, for each entry below, please note its growth inhibition.
1. CC(=O)Nc1cc(F)c(NC(C)=O)c(F)c1
2. CN(C(=O)c1ccc(C(=N)N)cc1)c1ccccc1
3. CC(=O)Oc1cccn(C)c1=O
4. CC(=O)OCc1cc(Cl)c(OC(C)=O)c(COC(C)=O)c1
5. CN(NC(=O)Nc1cccc2ccccc12)c1ccccc1
6. CC(O)C(C)[N+](=O)[O-] (stereo unspecified)
7. CCOC(=O)c1cnc(NCCCNc2ncc(C(=O)OCC)c(=O)[nH]2)[nH]c1=O

Key:
1: -10.3; 2: -8.95; 3: 21.1; 4: 3.65; 5: -6.85; 6: -1.05; 7: 10.3

###

assay: NCI Yeast Anticancer Drug Screen. Data for the rad50 strain (AID 155);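 further: 0% = growth of vehicle-only cultures of the same strain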; settings: S. cerevisiae rad50 strain growth inhibition; at 50.0 µM
The panel holds about 79,000 compounds, 15% with a hit somewhere; the sample as a whole holds those more often. The source made the active and inactive calls. Rule as the data show it: active = growth inhibition above about 70%; inactive = the rest.
Entry note: the call must match one of true (1) for active, false (0) for inactive

Exercise: Please let me know the test result on file for CCCCCCCCCCCCCCCCOCC(COP(=O)(O)OCC1OC(n2cc(CC)c(=O)[nH]c2=O)CC1O)OC(=O)CCCCCCCCCCCCCCC (stereo unspecified) .
Key: false (0)

Exercise: Please let me know the test result on file for `CC[N+]1(C)CCOCC1` .
Key: false (0)

Exercise: Please let me know the test result on file for CCCCCCC(O)CCCCCCCCCCC(=O)OC (stereo unspecified) .
Key: false (0)

Exercise: Please let me know the test result on file for `CCOC(=O)c1c(-c2ccccc2)c(C)cn1C` .
Key: false (0)

Exercise: Please let me know the test result on file for `O=C(Nc1ccc(Cl)c(Cl)c1)OCCN1CCOCC1` .
Key: true (1)

Exercise: Please let me know the test result on file for `C#CN1C(=O)c2c(c(-c3ccccc3)c(-c3ccc(Oc4ccc(-c5c(-c6ccccc6)c6c(c(-c7ccccc7)c5-c5ccccc5)C(=O)N(C#C)C6=O)cc4)cc3)c(-c3ccccc3)c2-c2ccccc2)C1=O` .
Key: false (0)

Exercise: Please let me know the test result on file for `Cc1cc(S(=O)(=O)O)ccc1Cl` .
Key: false (0)

Exercise: Please let me know the test result on file for `COc1ccc(/C=C2\Oc3cc(OC(C)=O)ccc3C2=O)cc1` .
Key: false (0)

Now look at this one.
Exercise: Please let me know the test result on file for `CN(C)CCN1C(=O)CC[C@@]2(C)C1=CC[C@@H]1[C@@H]2CC[C@@]2(C)[C@H]1CC[C@]2(C)O` .
Key: false (0)
